Taken from ChEMBL document CHEMBL4387722.

measured property: IC50 (µM)
Numeric only. Scale: µM

For the compound O=[N+]([O-])c1ccc(S(=O)(=O)Nc2ccc(-c3nc4cc(NS(=O)(=O)c5ccc([N+](=O)[O-])cc5)ccc4o3)cc2)cc1 , the measured IC50 on Tyrosine-protein phosphatase non-receptor type 5 (Homo sapiens, UniProt P54829) was 18

Note to self: IC50 of O=S(=O)(Nc1ccc2oc(-c3ccccc3)nc2c1)c1ccccc1O with Tyrosine-protein phosphatase non-receptor type 5 (Homo sapiens, UniProt P54829) was 68

Recorded IC50 for O=S(=O)(Nc1ccc(-c2nc3ccccc3o2)cc1)c1ccccc1F on Tyrosine-protein phosphatase non-receptor type 5 (Homo sapiens, UniProt P54829) was 70

The reported Tyrosine-protein phosphatase non-receptor type 5 (Homo sapiens, UniProt P54829) IC50 of O=S(=O)(Nc1ccc(-c2nc3ccccc3o2)cc1)c1ccccc1O is 36

The observed IC50 for COc1ccc(Cl)cc1S(=O)(=O)Nc1ccc(-c2nc3ccccc3o2)cc1 when tested with Tyrosine-protein phosphatase non-receptor type 5 (Homo sapiens, UniProt P54829) stands at 37
